target: Glutamate receptor ionotropic, NMDA 1 (Rattus norvegicus); assay: Compound was evaluated for its binding affinity towards strychnine - insensitive glycine site of NMDA receptor in presence of [3H]- Gly
Readout Type: IC50 (µM)
Numbers only, in µM.

{"columns": ["Compound", "Recorded Number"],
 "data": [
  ["Cn1c(=O)c(=O)[nH]c2cc(Cl)c(Cl)cc21", 17],
  ["Oc1nc2cc(Cl)c(Cl)cc2nc1O [2,3-DIHYDROXY-6,7-DICHLOROQUINOXALINE]", 4],
  ["Oc1nc2cc(Cl)c(Cl)cc2n2ccnc12", 6],
  ["Oc1nc2cc(Cl)c(Cl)cc2n2cnnc12", 7]
]}

I have 2 compounds here; please give me IC50 for each one.
1. CCn1c(=O)c(=O)[nH]c2cc(Cl)c(Cl)cc21
2. Oc1nc2cc(Cl)c(Cl)cc2n2nnnc12

## Output
1: 96; 2: 77

---

Field: IC50. Provide a value for each of the compounds that follow.
target: Glutamate receptor ionotropic AMPA (Homo sapiens, UniProt P42261+P42262+P42263+P48058); test: Compound was evaluated for its binding affinity towards Ionotropic glutamate receptor AMPA in presence of [3H]- AMPA; type: protein-complex assay
Numbers only, in µM.

{"columns": ["Compound", "Readout Type", "Reading Unit", "Recorded Number"],
 "data": [
  ["CCn1c(=O)c(=O)[nH]c2cc(Cl)c(Cl)cc21", "IC50", "µM", 21],
  ["Oc1nc2cc(Cl)c(Cl)cc2n2ccnc12", "IC50", "µM", 7],
  ["Oc1nc2cc(Cl)c(Cl)cc2nc1O [2,3-DIHYDROXY-6,7-DICHLOROQUINOXALINE]", "IC50", "µM", 27],
  ["Cn1c(=O)c(=O)[nH]c2cc(Cl)c(Cl)cc21", "IC50", "µM", 36]
]}

Let us examine a further case.
## Input Using the record for `Oc1nc2cc(Cl)c(Cl)cc2n2cnnc12` , report its IC50.
## Output 8

---

So I've got a bunch of compounds here, and I need their pIC50 values.
target: Glutamate receptor ionotropic, NMDA 1 (Rattus norvegicus, UniProt P35439); assay: Compound was evaluated for its binding affinity towards strychnine - insensitive glycine site of NMDA receptor in presence of [3H]- Gly
pIC50: −log10 of the molar value.

{"columns": ["Substance Smiles", "pIC50"],
 "data": [
  ["O=c1[nH]c2ccccc2n2ccnc12", "< 4.00"]
]}

Please report pIC50 for every entry that follows.
1. CCCCn1c(=O)c(=O)[nH]c2cc(Cl)c(Cl)cc21
2. O=c1[nH]c2ccccc2n2nnnc12

## Output
1. < 4.00
2. < 4.00
